test system: HUVEC; test: Antiproliferative activity against human HUVEC cells assessed as reduction in cell viability after 72 hrs by trypan blue assay; type: functional
Entries and their GI50 values follow.

{"compound": "COc1ccc(-c2ncc3c(n2)-c2ccc(Cl)cc2SC3)cc1", "relation": "=", "GI50 [µM]": 4.7}
{"compound": "Clc1ccc(-c2ncc3c(n2)-c2ccccc2SC3)cc1", "relation": "=", "GI50 [µM]": 11.3}
{"compound": "Clc1ccc(CNc2ncc3c(n2)-c2ccc(Cl)cc2SC3)cc1", "relation": "=", "GI50 [µM]": 17}
{"compound": "COc1ccc(Nc2ncc3c(n2)-c2ccc(Cl)cc2SC3)cc1", "relation": "=", "GI50 [µM]": 16.4}
{"compound": "Clc1ccc(-c2ncc3c(n2)-c2ccc(Cl)cc2SC3)cc1", "relation": "=", "GI50 [µM]": 15.3}
{"compound": "COc1ccc(Nc2ncc3c(n2)-c2ccccc2SC3)cc1", "relation": "=", "GI50 [µM]": 0.45}
{"compound": "COc1ccc2c(c1)SCc1cnc(NCc3ccc(Cl)cc3)nc1-2", "relation": ">", "GI50 [µM]": 20}
{"compound": "Clc1ccc(Nc2ncc3c(n2)-c2ccccc2SC3)cc1", "relation": "=", "GI50 [µM]": 7.3}
{"compound": "c1ccc(-c2ncc3c(n2)-c2ccccc2SC3)cc1", "relation": "=", "GI50 [µM]": 4}
{"compound": "COc1ccc2c(c1)SCc1cnc(Nc3ccc(Cl)cc3)nc1-2", "relation": ">", "GI50 [µM]": 20}
{"compound": "Clc1ccc2c(c1)SCc1cnc(NCc3ccccc3)nc1-2", "relation": "=", "GI50 [µM]": 15.1}
{"compound": "COc1ccc(-c2ncc3c(n2)-c2ccccc2SC3)cc1", "relation": "=", "GI50 [µM]": 12}
{"compound": "COc1ccc2c(c1)SCc1cnc(Nc3ccccc3)nc1-2", "relation": "=", "GI50 [µM]": 4.3}
{"compound": "Cc1cc(C)c(/C=C2\\C(=O)Nc3ccccc32)[nH]1 [SEMAXANIB]", "relation": "=", "GI50 [µM]": 13.6}
{"compound": "COc1ccc2c(c1)SCc1cnc(NCc3ccccc3)nc1-2", "relation": ">", "GI50 [µM]": 20}
{"compound": "COc1ccc(CNc2ncc3c(n2)-c2ccc(OC)cc2SC3)cc1", "relation": ">", "GI50 [µM]": 20}
{"compound": "COc1ccc2c(c1)SCc1cnc(-c3ccc(Cl)cc3)nc1-2", "relation": ">", "GI50 [µM]": 20}
{"compound": "COc1ccc(-c2ncc3c(n2)-c2ccc(OC)cc2SC3)cc1", "relation": "=", "GI50 [µM]": 4.8}
{"compound": "c1ccc(Nc2ncc3c(n2)-c2ccccc2SC3)cc1", "relation": "=", "GI50 [µM]": 2.4}
{"compound": "COc1ccc(Nc2ncc3c(n2)-c2ccc(OC)cc2SC3)cc1", "relation": "=", "GI50 [µM]": 0.74}
{"compound": "Clc1ccc(Nc2ncc3c(n2)-c2ccc(Cl)cc2SC3)cc1", "relation": "=", "GI50 [µM]": 0.35}
{"compound": "Clc1ccc(CNc2ncc3c(n2)-c2ccccc2SC3)cc1", "relation": "=", "GI50 [µM]": 12.3}
{"compound": "COc1ccc(CNc2ncc3c(n2)-c2ccc(Cl)cc2SC3)cc1", "relation": "=", "GI50 [µM]": 12}
{"compound": "c1ccc(CNc2ncc3c(n2)-c2ccccc2SC3)cc1", "relation": ">", "GI50 [µM]": 20}
